Values from patent US20110086759A1

# Tested on: Alopecurus myosuroides (ALOMY)
# Assay details: Post-emergence biological efficacy, glasshouse pot test
# Assay type: in vivo
# Assay setup: 312 h, Rate 1,000 g/ha, post-emergence spray, evaluated after 13 days (100=total damage to plant; 0=no damage to plant), read-out: Percentage damage caused to weed species, post-emergence, ALOMY

- Compound: "COC(=O)c1nc(-c2ccc(C)cc2)nc(NCc2ccco2)c1Cl [Compound 237-48]"
  pest or weed control at 1000 g/ha [%]: 0
- Compound: "COC(=O)c1nc(C2CC2)nc(N(C)Cc2cccc([N+](=O)[O-])c2)c1Cl [Compound 5-91]"
  pest or weed control at 1000 g/ha [%]: 20
- Compound: "COC(=O)c1nc(Cl)nc(NCc2ccc(C)o2)c1Cl [Compound 207-50]"
  pest or weed control at 1000 g/ha [%]: 0
- Compound: "COC(=O)c1nc(C2CC2)nc(N(Cc2ccccc2)C[Si](C)(C)C)c1Cl [Compound 150-60]"
  pest or weed control at 1000 g/ha [%]: 40
- Compound: "COC(=O)c1nc(-c2ccc(Cl)c(F)c2)nc(NCc2ccco2)c1Cl [Compound 222-48]"
  pest or weed control at 1000 g/ha [%]: 30
- Compound: "COC(=O)c1nc(C2CC2)nc(N(C)Cc2cccc(Cl)c2)c1Cl [Compound 5-62]"
  pest or weed control at 1000 g/ha [%]: 20
- Compound: "COC(=O)c1nc(-c2ccc(OC)c(OC)c2)nc(NCc2ccco2)c1Cl [Compound 260-48]"
  pest or weed control at 1000 g/ha [%]: 0
- Compound: "COC(=O)c1nc(C2CC2)nc(N(C)CCc2ccccc2)c1Cl [Compound 5-221]"
  pest or weed control at 1000 g/ha [%]: 10
- Compound: "O=C(NCc1ccccc1)c1nc(C2CC2)nc(NCc2ccccc2)c1Cl [Compound 265-1]"
  pest or weed control at 1000 g/ha [%]: 10
- Compound: "C=CCN(Cc1ccccc1)c1nc(C2CC2)nc(C(=O)OC)c1Cl [Compound 151-60]"
  pest or weed control at 1000 g/ha [%]: 20
- Compound: "CC(C)COC(=O)c1nc(C2CC2)nc(NCc2ccco2)c1Cl [Compound 199-125]"
  pest or weed control at 1000 g/ha [%]: 20
- Compound: "COC(=O)c1nc(-c2ccc(Cl)cc2OC)nc(NCc2ccco2)c1Cl [Compound 214-48]"
  pest or weed control at 1000 g/ha [%]: 30
- Compound: "COC(=O)c1nc(C2CC2)nc(N(C)Cc2cccc(OC)c2)c1Cl [Compound 5-79]"
  pest or weed control at 1000 g/ha [%]: 0
- Compound: "COC(=O)c1nc(-c2ccc(Cl)c(OC)c2F)nc(NCC2CC2)c1Cl [Compound 112-43]"
  pest or weed control at 1000 g/ha [%]: 40
- Compound: "COC(=O)c1nc(-c2ccc(Cl)cc2C)nc(NCc2ccco2)c1Cl [Compound 213-48]"
  pest or weed control at 1000 g/ha [%]: 0
- Compound: "COC(=O)c1nc(-c2ccc(Cl)c(C#N)c2)nc(NCc2ccco2)c1Cl [Compound 221-48]"
  pest or weed control at 1000 g/ha [%]: 10
- Compound: "COC(=O)c1nc(C2CC2)nc(N(C)CCc2ccccn2)c1Cl [Compound 5-228]"
  pest or weed control at 1000 g/ha [%]: 20
- Compound: "Cc1c(NCC2CC2)nc(C2CC2)nc1OCC(=O)NCC1CC1 [Compound 266-20]"
  pest or weed control at 1000 g/ha [%]: 0
- Compound: "COC(=O)c1nc(-c2ccc(OC)c(Cl)c2)nc(NCc2ccco2)c1Cl [Compound 254-48]"
  pest or weed control at 1000 g/ha [%]: 0
